Hey, just so you know, these numbers are from ChEMBL document CHEMBL5543158.

assay: AUC (0 to t)in mouse at 20 mg/kg, ip measured upto 24 hrs; type: ADME, organism-based; details: in vivo
measurement-label: AUC(0-t) at 24 h (ng·h/mL)
A number alone suffices; assume ng·h/mL.

Given "CN1c2ccc(F)cc2C(=O)N2CCc3c([nH]c4ccc(O[C@@H]5O[C@H](CO)[C@@H](O)[C@H](O)[C@H]5O)cc34)[C@H]21" , state its recorded AUC(0-t) at 24 h. 8430

====

test: Cmax in mouse at 20 mg/kg, ip measured upto 24 hrs; type: ADME, organism-based; conditions: in vivo
measurement-label: Cmax
Provide the measurement as a number trailed by its unit.

Given "CN1c2ccc(F)cc2C(=O)N2CCc3c([nH]c4ccc(O[C@@H]5O[C@H](CO)[C@@H](O)[C@H](O)[C@H]5O)cc34)[C@H]21" , state its recorded Cmax. 8840 ng/mL

====

test: Tmax in mouse at 10 mg/kg, ip measured upto 24 hrs; format: ADME, organism-based; details: in vivo
measurement-label: Tmax (min)
A number alone suffices; assume min.

Given "CN1c2ccc(F)cc2C(=O)N2CCc3c([nH]c4ccc(O[C@@H]5O[C@H](CO)[C@@H](O)[C@H](O)[C@H]5O)cc34)[C@H]21" , state its recorded Tmax. 30

====

experiment: Half life in mouse at 20 mg/kg, ip measured upto 24 hrs; type: ADME, organism-based; settings: in vivo
measurement-label: half-life (h)
A number alone suffices; assume h.

Given "CN1c2ccc(F)cc2C(=O)N2CCc3c([nH]c4ccc(O[C@@H]5O[C@H](CO)[C@@H](O)[C@H](O)[C@H]5O)cc34)[C@H]21" , state its recorded half-life. 6.2

====

test: MRT (0 to t) in mouse at 20 mg/kg, ip measured upto 24 hrs; assay type: ADME, organism-based; conditions: in vivo
measurement-label: MRT last at 24 h (min)
A number alone suffices; assume min.

Given "CN1c2ccc(F)cc2C(=O)N2CCc3c([nH]c4ccc(O[C@@H]5O[C@H](CO)[C@@H](O)[C@H](O)[C@H]5O)cc34)[C@H]21" , state its recorded MRT last at 24 h. 59.5

====

test: Stability of the compound in mouse serum assessed as compound remaining measured upto 120 mins; assay type: ADME, cell-free; settings: read-out: Stability
measurement-label: remaining at 2 h (%)
A number alone suffices; assume %.

Given "CN1c2ccc(F)cc2C(=O)N2CCc3c([nH]c4ccc(O[C@@H]5O[C@H](CO)[C@@H](O)[C@H](O)[C@H]5O)cc34)[C@H]21" , state its recorded remaining at 2 h. 100

====

assay: Half life in mouse at 10 mg/kg, ip measured upto 24 hrs; assay type: ADME, organism-based; conditions: in vivo
measurement-label: half-life (h)
A number alone suffices; assume h.

Given "CN1c2ccc(F)cc2C(=O)N2CCc3c([nH]c4ccc(O[C@@H]5O[C@H](CO)[C@@H](O)[C@H](O)[C@H]5O)cc34)[C@H]21" , state its recorded half-life. 2.41

====

experiment: Plasma protein binding mouse plasma at 2 uM; assay type: ADME, cell-free; settings: read-out: PPB (converted)
measurement-label: fraction unbound at 2 µM

Given "CN1c2ccc(F)cc2C(=O)N2CCc3c([nH]c4ccc(O[C@@H]5O[C@H](CO)[C@@H](O)[C@H](O)[C@H]5O)cc34)[C@H]21" , state its recorded fraction unbound at 2 µM. 0.101
